test system: Staphylococcus aureus; test: Serum effect on MIC against Staphylococcus aureus (Smith) as ratio of MIC value in presence and absence of 50% fetal calf serum; type: functional
experimental endpoint: MIC+/MIC-

Examples with answers:
{"given smiles": "CCc1cc(Nc2cc(=O)n(CCCCCCCCN3CCOCC3)c(=O)[nH]2)ccc1C", "MIC+/MIC-": ">7.1"}
{"given smiles": "CCOC(=O)CCCCn1c(=O)cc(Nc2ccc(C)c(CC)c2)[nH]c1=O", "MIC+/MIC-": ">12.2"}
{"given smiles": "CCc1cc(Nc2cc(=O)n(CCCCCCCCCO)c(=O)[nH]2)ccc1C", "MIC+/MIC-": ">32"}

# next compound below
The measured MIC+/MIC- that CCc1cc(Nc2cc(=O)n(CCOCCOc3ccccc3)c(=O)[nH]2)ccc1C showed for Staphylococcus aureus is >5.6

----------
system: Staphylococcus aureus; assay: In vitro minimum inhibitory concentration against Staphylococcus aureus (Smith) upon incubation at 37 degree C for 16 to 24 hr by dissolving in DMSO (1%); format: functional
Record form. Attribute: MIC. Fill in for each entry.

{"given smiles": "CCc1cc(Nc2cc(=O)n(CCCCN(CCO)CCO)c(=O)[nH]2)ccc1C", "measured target": "Staphylococcus aureus", "value reported": "> 20 µg/mL"}
{"given smiles": "CCc1cc(Nc2cc(=O)n(CCCCNCCO)c(=O)[nH]2)ccc1C", "measured target": "Staphylococcus aureus", "value reported": "> 20 µg/mL"}

# next compound below
GET /value?item= CCc1cc(Nc2cc(=O)n(CCCCCCCCCCO)c(=O)[nH]2)ccc1C &field=MIC returns > 20 µg/mL
